experiment: xn = mol fraction of the nth substance listed, in the solute-free solvent; settings: 288.15 K; x2 = 0.2068
metricName: solubility (g/100 g solution)
Form rule: numeric answer, no unit written next to it.

Problem: Quote solubility (g/100 g solution) reported for COc1cc2c(cc1OC)-c1cc3ccc(OC)c(OC)c3c[n+]1CC2.[Cl-] + CCO + O please.
Result: 1.74

Problem: Find the measured solubility (g/100 g solution) of CC(C)OC(=O)C(C)NP(=O)(OCC1OC(n2ccc(=O)[nH]c2=O)C(C)(F)C1O)Oc1ccccc1 (centres undefined) + CCO + O and report it.
Result: 9.66

Problem: Please give the documented solubility (g/100 g solution) of Nc1cccc(S(=O)(=O)c2cccc(N)c2)c1 + CCO + O
Result: 0.41

Problem: Identify solubility (g/100 g solution) associated with the molecule Cc1[nH]c(=O)c(C#N)cc1-c1ccncc1 + CCO + O
Result: 0.00221
